Origin of values: patent US9663527B2

Molecular target: purified human Factor XIa (Homo sapiens (Human), UniProt P03951)
Sequence (P03951 388-625): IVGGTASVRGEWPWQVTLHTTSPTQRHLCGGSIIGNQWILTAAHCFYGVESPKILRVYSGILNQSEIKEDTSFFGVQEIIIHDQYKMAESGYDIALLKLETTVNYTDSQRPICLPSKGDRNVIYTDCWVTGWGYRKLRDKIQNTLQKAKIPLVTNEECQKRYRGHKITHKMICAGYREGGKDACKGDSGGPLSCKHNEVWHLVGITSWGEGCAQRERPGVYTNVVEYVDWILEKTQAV
Sequence (P03951 19-387 partner): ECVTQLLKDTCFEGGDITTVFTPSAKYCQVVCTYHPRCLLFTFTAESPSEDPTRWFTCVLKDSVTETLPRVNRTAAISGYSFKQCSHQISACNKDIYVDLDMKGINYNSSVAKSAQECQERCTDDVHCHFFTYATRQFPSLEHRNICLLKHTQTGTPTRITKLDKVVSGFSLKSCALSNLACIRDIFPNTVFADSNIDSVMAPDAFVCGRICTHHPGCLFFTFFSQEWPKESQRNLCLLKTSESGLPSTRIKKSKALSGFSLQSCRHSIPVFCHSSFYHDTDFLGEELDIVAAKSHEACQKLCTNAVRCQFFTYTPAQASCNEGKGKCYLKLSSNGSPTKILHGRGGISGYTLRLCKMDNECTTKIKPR
pKi: −log10 of the molar value. Where a name gives a salt, the structure may show the parent alone.
observed property: pKi

[1] NCc1ccc2c(c1)CCN([C@H]1CCCCC(=O)Nc3ccc(F)cc3-c3ccnc1c3)C2=O [Example 4]
[2] COC(=O)Nc1ccc2c(c1)NC(=O)CCCC[C@H](N1Cc3cc(CN)ccc3C1=O)c1nc-2c[nH]1 [Example 3]
[3] COC(=O)Nc1ccc2c(c1)NC(=O)CCCC[C@H](N1CCc3cc(CN)ccc3C1=O)c1nc-2c[nH]1 [Example 1]
[4] COC(=O)Nc1ccc2c(c1)NC(=O)CCCC[C@H](N1CCCc3cc(CN)ccc3C1=O)c1nc-2c[nH]1 [Example 2, trifluoroacetate]
List by increasing pKi. Reply format: the labels, ordered as requested. 1, 2, 4, 3
(1: 6.77, 2: 7.15, 4: 8.41, 3: 8.62)
